Listing: Tm of selected molecules
- Protocol description: Binding affinity to synthetic d(ACGTAGAACGT) dsDNA assessed as melting temperature at 2.5 uM by SYBR green I dye dependent differential scanning fluorimetry based thermal denaturation method (reference value: 44.2 +/- 1.0 degC)
Numbers only here, please. The scale is °C.

Check out these entries, answers already filled in.
{"columns": ["Molecule", "Result unit", "Tm"],
 "data": [
  ["CSC1SC[C@H]2C(=O)N(C)[C@@H](C(C)C)C(=O)OC[C@@H](NC(=O)c3cnc4ccccc4n3)C(=O)N[C@@H](C)C(=O)N(C)[C@@H]1C(=O)N(C)[C@@H](C(C)C)C(=O)OC[C@@H](NC(=O)c1cnc3ccccc3n1)C(=O)N[C@@H](C)C(=O)N2C (some centres undefined)", "°C", 55.8],
  ["CC(C)[C@H]1C(=O)OC[C@@H](NC(=O)c2cnc3ccccc3n2)C(=O)N[C@@H](C)C(=O)N(C)[C@H]2CSSC[C@@H](C(=O)N1C)N(C)C(=O)[C@H](C)NC(=O)[C@H](NC(=O)c1cnc3ccccc3n1)COC(=O)[C@H](C(C)C)N(C)C2=O", "°C", 47.2],
  ["CC(C)[C@H]1C(=O)OC[C@@H](NC(=O)c2nc3ccccc3cc2O)C(=O)N[C@@H](C)C(=O)N(C)[C@H]2C/C=C\\C[C@@H](C(=O)N1C)N(C)C(=O)[C@H](C)NC(=O)[C@H](NC(=O)c1nc3ccccc3cc1O)COC(=O)[C@H](C(C)C)N(C)C2=O", "°C", 54.3]
]}

[ask] Reported Tm for `CC(C)[C@H]1C(=O)OC[C@@H](NC(=O)c2cnc3ccccc3n2)C(=O)N[C@@H](C)C(=O)N(C)[C@H]2C/C=C\C[C@@H](C(=O)N1C)N(C)C(=O)[C@H](C)NC(=O)[C@H](NC(=O)c1cnc3ccccc3n1)COC(=O)[C@H](C(C)C)N(C)C2=O` : what is it?
[reply] 52.5
